assay: protease stability score; higher = more stable; yeast display proteolysis, trypsin and chymotrypsin;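 note: log10 excess protease needed over predicted unfolded state with 0 meaning unfolded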
Reported protease stability score values follow for various sequences
Please reply with the number alone, leaving off any unit.

// solved cases for protease stability score follow
SEQUENCE_ENTRY: DEEDDKRIAEDVVRQLQTGNPDQARDQADPNAEFRVGDRTIHGRDSFRRLMKETRDEVDKVQVQDFEMHNGHFSVNLVFNINGKEKLVHMSAQFKNGTIKHLSVQDQ
protease stability score: -0.36
//
SEQUENCE_ENTRY: DEEEVRELAERFAENLERGDFHKVANQADPNARMQIGDTRYHGREELQRFLKELMERVDHLQIRSVKVRGNHVTIRMHVHYNGKSVDMHMTFHAKNGKIKHVEFNPKDFDKARR
protease stability score: 0.813
//
SEQUENCE_ENTRY: DEEHVRRQAKQVNDILTTGDENKMLEMAPPDAKLEYGDRHVTGREHIRRMVHEQKKQIDDFKIDTYSVSGNEVRVRFVARVNGQEADFEITIVFKNGRIHEIKVDPDALQQMRK
protease stability score: 0.256
//
SEQUENCE_ENTRY: DEDKQRKRAETAAHIVENNNPDEQNKLADKDVTMQVGETQVHGREDLKELMEEMREQFDHIRVRSFDAHGNKVRLRFHAEYNGVTLEFVIINNYHNGKVQSINLRVTNPEEFRKAQG
protease stability score: 0.122
//
SEQUENCE_ENTRY: DERAHEAIENWLRAEQTNDPKQVKDNADPNARVHVGDKVLHGMEEIQDELKRRIDQARYHIKDFHIDIQGEKAQIDREYTFSINGRPMSNTVRQEAKVDNGKIKEVNFRVSEELEDQEHK
protease stability score: -0.242
//
SEQUENCE_ENTRY: DDEDFKKFKELVETGDWSSLRKQADKNVRQRVGDKQIHGKEEFSRLLKHLQDQIDHVEIKHMQDEPNHLRVDVVWNINGVRVRFQYIVELSNGHIKYIKIDVTDENKLTKLQDLLQ
protease stability score: 0.491

Pending sequence:
Query (sequence): "DSEKMHEINKALKTNDPDKLEQLMDKDVRAKVGDKTFHGREEVVKMWRDLYKQADHVNVDRVDVQGEKIDATVRADFNGTSVDYKVHISASNGRIKHITVTVTDEERHRQLQSVLG" ; field requested: protease stability score
1.31

----------
assay: protease stability score; higher = more stable; yeast display proteolysis, trypsin and chymotrypsin;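 note: log10 excess protease needed over predicted unfolded state with 0 meaning unfolded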
Returns yes (1) if the recorded protease stability score is greater than or equal to 0.9, and no (0) otherwise.

Solved cases below.
SEQUENCE_ENTRY: DQQHTASKVLSDMVKAIQDGDEDHISEQADENVKIRIGDKEYHGKENARRMLKEIQHQVDHISVEVKSVSSHNGRVNVRAEVQMRFNGRSTSYDVTAIFRYNNGQLRLYSVSAR
LABEL_VALUE: no (0)
//
SEQUENCE_ENTRY: DDEDADKAQRILETGNPDEMDKLLDKDVRVVVGDKEYKGREQVSEFFRRLLEQVDTITFLSVEIHNGTVQARVLVNVNGHNVDVVFQFVVHNGKLKHAKVEARNEEEQKKLDRALS
LABEL_VALUE: yes (1)
//
SEQUENCE_ENTRY: DEEEVRRIAHEFLKAVERGDEKRVRQLADKDVRAVVGDKRIHGKKDLAKLVKTLRDRADQFKVRDLEVQGNHVEVDLVMIVNGQSVDMSINIVVHNGTIHHMEIRVTDEDRMREVNS
LABEL_VALUE: no (0)
//
SEQUENCE_ENTRY: DQDHEQKMMTRVAHAFDNGDDQSLARLMDPNVSVTVGDKSVHGRERVRELVNEWRHRVDHIKLDRVEHQGNKAKFHITVEHNGERDQVDLEIEARNGKVKNVVLHRP
LABEL_VALUE: yes (1)

# check: protease stability score of "EERDEAENAIRRFLEAVEEGDEDNLREQADPNAKFDVGDKTVHGMKSYARQQIEERERIDHVDYRISSVRLEGNRADVKVKFKARVDGRTKTATATINMQRHNGRMKIKEMKIN" is greater than or equal to 0.9
no (0)

# check: protease stability score of "DDKERDHLRKLMEEGDFTEIAENADPNAKFVIGDKEIHGREQFQTVAKRRQERVDHFDVKRVSVSGNKVRATMVMVVDGEKIHFTVIIEIDNGRVKSVRLQYRDETVKRQIEEAMS" is greater than or equal to 0.9
no (0)

# check: protease stability score of "DEDALTRLREFDDNVRKGNKHRLQDLMDPNVKVRYGDTEIKGREHVAKELKKLVDTMHIEIDYKSMSAEGNHATLTAEVVVQVNGRPIKFRMHVQVQFENGKIKELVYRFSEDAQKKMDG" is greater than or equal to 0.9
yes (1)

# check: protease stability score of "DEEELRQAMKVVKTNDPDNLRKLMDENVRVQVGNKVYHGREEAEKWLERMRKQIDHVNVRRVQIQGDRIVVEMEVTVNGKTIEATLHAKLHNGSLKSLRVEATSEKEKEKIEEANK" is greater than or equal to 0.9
yes (1)

# check: protease stability score of "DEELAKIVLRLLQAEENGDERTLQENADPNVTINVGEKRIRGMETYAKEVTERRKRMRVEVDVKDYRNHGEHVVIVNTRLNESNGKPHRNRMQFVIHAHNGRITKISDNTDS" is greater than or equal to 0.9
no (0)

# check: protease stability score of "DQNDRAEEFFKHWQRILTKNDPDEARKQMDKDVNVVYGDKRYHGREEVVKYLRDNMDRVDSIRVKLDDFKVDNGKATFHARFRQTHNGKDEQHNVVIVAQFKNGKLRAQSYHES" is greater than or equal to 0.9
yes (1)

# check: protease stability score of "DDDTDRKVAEDAWRAFEKGDHKRLIELMDKDAEVQVGNRRVSGREKAAHEMVRMVERADHISVKSIDIRGDKATIKFQVNVNGHNQEAKVVFRVQNGRVQEVKFDPTMEKALRT" is greater than or equal to 0.9
yes (1)
